Where do these numbers come from? They come from the supplement of paper PMC10126150.

Property: switch fluorescence ratio; scope: individual sequences
- Test system: ATP;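 also: ATP exposure 15 min at 22 °C before imaging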
- protocol summary: switch fluorescence ratio, 500 uM ATP over buffer (Cy3 cluster intensity, sum of 5 cycles each) (fold (ratio)); higher = stronger signal-on switching upon ATP binding; sequences stand for … in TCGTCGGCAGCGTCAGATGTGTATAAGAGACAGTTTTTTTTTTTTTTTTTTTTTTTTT…TC
- condition parameters: aptamer strand: ATP DNA aptamer (quencher-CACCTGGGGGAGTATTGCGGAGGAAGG + anchor), 100 nM annealed; ATP concentration: 500 uM
Reply with just the number.

The following sequences have reported results that may help.
TTCGGACCAA : 1.46
ACTCATGTT : 0.996
CAAGCATAGG : 1.07

Input: Which switch fluorescence ratio value belongs to `ATTGTGTCTA` ?
Output: 0.994

Input: Subsequent entry: `CGAGTTGGGG`
Output: 1.01

Input: Subsequent entry: `AGGGGGGCGA`
Output: 1.01

Input: Subsequent entry: `ATACCTGAG`
Output: 1.53

Input: Subsequent entry: `AAATACGTTT`
Output: 1

Input: Subsequent entry: `TTGGGTTATT`
Output: 0.979

Input: Subsequent entry: `AGTTATAAAG`
Output: 0.986

Input: Subsequent entry: `AAATCTGAAG`
Output: 0.98

Input: Subsequent entry: `GGGGGCTAGT`
Output: 0.991

Input: Subsequent entry: `TCATAAGGGA`
Output: 0.997

Input: Subsequent entry: `TCGCTAACGG`
Output: 1.07

Input: Subsequent entry: `GGAATGAAG`
Output: 1.01

Input: Subsequent entry: `CTGGCTGGTT`
Output: 1.01

Input: Subsequent entry: `TGGTGTATGC`
Output: 1.03

Input: Subsequent entry: `GATGGGTAAA`
Output: 0.992

Input: Subsequent entry: `TCGTTATCTT`
Output: 0.979

Input: Subsequent entry: `GGGTTTATCA`
Output: 1.03

Input: Subsequent entry: `CAAATCAGTG`
Output: 1
